Test system: 786-O
Assay protocol: Inhibitory activity for other high metastasis type cancer cell line (MTT or CCK-8)
Type: cell-based
Details: Homo sapiens, 786-0, 72 h

# Compound, Target, Output unit, IC50
data = [
    ("[O-][S+](/C=C/CCN=C=S)c1ccccc1 (stereo not shown)", "786-O", "nM", 1000),
]

* * *

System: Jeko-1
Assay protocol: Inhibitory activity for high metastasis type lymphoma cell line (MTT or CCK-8)
Format: cell-based
Details: Homo sapiens; Jeko-1, 72 hours; read-out: IC50
Experimental: Jeko-1, Raji and U2932 are three typical high metastasis type lymphoma cell lines. The lymphoma cell line was inoculated on 96-well cell culture plate in an amount of 6000 cells per well and cultured at 37° C. for 24 hours, and then treated solely with the compound added therein and cultured. Seventy-two hours later, MTT or CCK-8 method was used to detect the inhibitory activity of the compound for the two high metastasis type lymphoma cell lines.
The entries below come with measured IC50 values attached.

# Compound, IC50 [µM]
data = [
    ("[O-][S+](/C=C/CCN=C=S)c1nnnn1-c1ccccc1 (stereo not shown)", 0.15),
    ("COc1cc([S+]([O-])/C=C/CCN=C=S)cc(OC)c1OC (stereo not shown)", 0.07),
    ("CCC[S+]([O-])/C=C/CCN=C=S (stereo not shown) [Compound F-01, reference compound]", 3.5),
    ("[O-][S+](/C=C/CCN=C=S)C1CC1 (stereo not shown) [Compound F-03, reference compound]", 3.1),
    ("S=C=NCCc1ccccc1 [PEITC, phenylethylisothiocyanate, reference compound]", 8.7),
    ("C[S+]([O-])CCCCN=C=S (stereo not shown) [SFN, sulforaphane, reference compound]", 10.1),
    ("CS/C=C/CCN=C=S [Compound F-06, reference compound]", 12),
]

* * *

Test system: TNF-α
Assay protocol: Serum TNF-α level of IBD animal model (ELISA)
Type: in vivo, SD rats
Details: 80 mg/kg, three days after making the TNBS model, Animal-3

# Molecule, Serum TNF-α level, Animal-3 [ng/mL]
measured = [
    ("[O-][S+](/C=C/CCN=C=S)c1nc2ccccc2s1 (stereo not drawn) [Compound I-20]", 1.1),
    ("[O-][S+](/C=C/CCN=C=S)c1nnnn1-c1ccccc1 (stereo not drawn) [Compound I-25]", 0.8),
    ("[O-][S+](/C=C/CCN=C=S)C1CC1 (stereo not drawn) [Compound F-03, reference compound]", 1.5),
    ("COc1cc([S+]([O-])/C=C/CCN=C=S)cc(OC)c1OC (stereo not drawn) [Compound I-06]", 0.5),
    ("C[S+]([O-])CCCCN=C=S (stereo not drawn) [SFN, sulforaphane, reference compound]", 2.1),
    ("[O-][S+](/C=C/CCN=C=S)c1ccc(Cl)c(C(F)(F)F)c1 (stereo not drawn) [Compound I-03]", 0.7),
    ("CCC[S+]([O-])/C=C/CCN=C=S (stereo not drawn) [Compound F-01, reference compound]", 1.9),
    ("CS/C=C/CCN=C=S [Compound F-06, reference compound]", 2.2),
    ("[O-][S+](/C=C/CCN=C=S)c1ccccc1 (stereo not drawn) [Compound I-01]", 1.2),
]

* * *

Reported IC50 values are given for each entry in this list.
Tested on: KYSE-70
Assay protocol: Inhibitory activity for other high metastasis type cancer cell line (MTT or CCK-8)
Type: cell-based
Details: Homo sapiens; KYSE-70, 72 hours; read-out: IC50

# Compound, Target, IC50
measured = [
    ("C[S+]([O-])CCCCN=C=S (centres unmarked) [SFN, sulforaphane, reference compound]", "KYSE-70", "11.3 µM"),
    ("[O-][S+](/C=C/CCN=C=S)c1ccc(Cl)c(C(F)(F)F)c1 (centres unmarked)", "KYSE-70", "1.8 µM"),
]
